- experimental-target: pre-pro-human insulin
quantity: Activity PPI cleavage

trypsin variant SEQ ID NO: 69 (protein) IVGGYTCAANSIPYQVSLNSGSHRCGGSLINSQWVVSAAHCYKSRIQVRLGEHNIDVLEGNEQFINAAKIITHPNFNGNTLDNDIMLIKLSSPATLNSRVATVSLPRSCAAAGTECLISGWGNTKSSGSSYPSLLQCLKAPVLSDSSCKSSYPGQITGNMICVGFLEGGKDACQGDSGGPVVCNGQLQGIVSFGYGCAQKNKPGVYTKVCNYVNWIQQTIAAN = yes
trypsin variant SEQ ID NO: 104 (protein) IVGGYTCAANSIPYQVSLNSGSHRCGGSLINSQWVVSAAHCYKSRIQVRLGEHNIHVLEGNEQFINAAKIITHPNFNPNTLDNDIMLIKLSSPATLNSNVATVSLPTSCAAAGTECLISGWGNTCSSGSSMPSLLQCLKAPVLSDSSCKSSYPGQITGNMICVGFLEGGADACQGDSGGPVVCNGQLQGIVSSGYGCAQKNKPGVYTKVCNYVNWIQQTIAAN = yes
